Measured values drawn from the supplement of paper PMC10724198 for this set.

# Tested on: Saccharomyces cerevisiae;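 further: PSI is a weighted mean of sequencing reads over stability bins, variants kept only with over 10 reads, mCherry proximal and sfGFP distal, peptide attached via GGGS linker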
# assay-name: protein stability index of tFT-peptide fusion (C-terminal peptide) (PSI (0-1 scale)); higher = more stable (slower turnover)
# setup-conditions: genetic background: wild type; temperature: 30 C
measurement-label: protein stability index

>>> recorded_number("LPCGPRGLTRPP")
0.661
>>> recorded_number("ISAPLPTLLSVL")
0.559
>>> recorded_number("KKSGTRDKNIQH")
0.676
>>> recorded_number("HDPRVGDNAHFV")
0.641
>>> recorded_number("RTLYEAAPLFVG")
0.729
>>> recorded_number("QPPLSDYHQARR")
0.683
>>> recorded_number("KKKTKRKQKIET")
0.727
>>> recorded_number("RGARTGGGRDGS")
0.705
>>> recorded_number("AYLPSLPPLGGI")
0.717
>>> recorded_number("PPAPSPRPPPPP")
0.708
>>> recorded_number("IIKMNERTLTKI")
0.692
>>> recorded_number("SFFYFVFYYLSF")
0.292
>>> recorded_number("GEAFLVRRSRNR")
0.722
>>> recorded_number("GVCWGNFGWRAV")
0.684
>>> recorded_number("PFVATRVSCFLT")
0.414
>>> recorded_number("KKIKKKKQTKRK")
0.662
>>> recorded_number("SRARIRLPRILS")
0.333
>>> recorded_number("WACGYLGSTILS")
0.643
>>> recorded_number("RGLRIFMSRAWH")
0.75
>>> recorded_number("LRFTYSFIPPSV")
0.631
>>> recorded_number("SGFLNVGYLWVC")
0.239
>>> recorded_number("GLSFSAALFSAF")
0.673
>>> recorded_number("TPSPHPRYRASH")
0.703
>>> recorded_number("GKARLATGESAL")
0.674
>>> recorded_number("INKATYTQIYKN")
0.667
>>> recorded_number("VGRAGMPGSAES")
0.66
>>> recorded_number("QGNEQFRYKILQ")
0.598
>>> recorded_number("GRCWAGAMGVVG")
0.71
>>> recorded_number("FFPATVGPFSFP")
0.731
>>> recorded_number("SGGWGGGDCVGA")
0.69
>>> recorded_number("TIIEHYMMINEK")
0.692
>>> recorded_number("AGFGVGALSRSG")
0.673
>>> recorded_number("PFIPLLLAPALA")
0.441
>>> recorded_number("ELGSIYDGWARA")
0.691
>>> recorded_number("GLFNIDLFRFVR")
0.732
>>> recorded_number("GFFNNRLASSLR")
0.734
>>> recorded_number("QEVTEVFSSTSY")
0.658
>>> recorded_number("SPACFKIFCRCF")
0.523
>>> recorded_number("PPAALPRSTPPP")
0.704
>>> recorded_number("SRIPARCDGKCI")
0.672
>>> recorded_number("KNSLIKTKESRK")
0.695
>>> recorded_number("GAGLGGGRGRRW")
0.686
>>> recorded_number("CTAWGGWWTGRR")
0.743
>>> recorded_number("PPPPVPPPPSPL")
0.697
>>> recorded_number("SPTIFLPLFLTS")
0.376
>>> recorded_number("SSPLLSISPHFP")
0.666
>>> recorded_number("THSLCIKPRTVV")
0.517
